B1: TPR t1 (parent)
chain: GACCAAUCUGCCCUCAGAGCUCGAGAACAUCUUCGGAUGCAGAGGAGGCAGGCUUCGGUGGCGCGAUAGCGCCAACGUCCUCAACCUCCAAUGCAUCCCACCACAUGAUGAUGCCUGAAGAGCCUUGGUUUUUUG

- Variants of: B1
- assay comment: polymerase ribozyme fitness, log enrichment relative to wild type (log ratio); higher = more active; in vitro selection for triplet polymerase activity
Could you please report measured polymerase ribozyme fitness (log ratio) for the items listed next?
Give bare numbers.

biopolymer sequence	reported endpoint	experimental value
GACCAAUCUGCCCUCAGAGCUCGAGAACAUCUUCGGAUGCAGAGGAGACAGGCUUCGGUGGCGCGAUAACGCCAACGUCCUCAACCUCCAAUGCAUCCCACCACAUGAUGAUGCCUGAAGAGCCUUGGUUUUUUG	polymerase ribozyme fitness (log ratio)	-4.63
GACCAAUCUGCCCUCAGAGCUCGAGAACAUCUUCGGAUGCAGAGGAGACAGGCUUCGGUGGCGCGAUAGCGCCAACGUCCUCAACCUCAAAUGCAUCCCACCACAUGAUGAUGCCUGAAGAGCCUUGGUUUUUUG	polymerase ribozyme fitness (log ratio)	-1.71
GACCAAUUUGCCCUCAGAGCUCGAGAACAUCUUCGGAUGCAGAGGAGACGGGCUUCGGUGGCGCGAUAGCGCCAACGUCCUCAACCUCCAAUGCAUCCCACCACAUGAUGAUGCCUGAAGAGCCUUGGUUUUUUG	polymerase ribozyme fitness (log ratio)	-1.52

Lab note: each variant below needs its polymerase ribozyme fitness (log ratio) filled in.
1. GACCAAUCUGCCCUCAGAGCUCGAGAACAUCUUCGGAUGCAGAGGAGGCAGGCUUUGGUGGCGCGAUAGCGCCAACGUCCUCAACCUCCAAUGCAUCCCACCACAUGAUGAUGCCUGAAGAGCCUUGGUAUUUUG
2. GACCAAUCUGCCCUGAGAGCUCGAGAACAUCUUCGGCUGCAGAGGUGGCAGGAUUGGGUGGCGCGAUAGCGCCAACGUCCUCAACCUCCAAUGCAUCCCACCACAUGAUGAUGCCUGAAGAGCCUUGGUUUUUUG
3. GACCAAUCUGCCCUCAGAAAUCGAGAACAUCUUCGGAUGCAGAGGAGGCAGGCUUCGGUGGUGCGAUAGCGCCAACGUCCUCAACCUCCAAUGCAUCCCACCACAUGAUGAUGCCUGAAGAGCCUUGGUUUUUUG
4. GACCAAUCUGCACUCAGAGCUCGAGAACAUCUUCGGAUGCAGAGGAGGCAGGCUUCGGUGGCGCGAUAGCGGCAACGUCCUCAACCUCCAAUGCAUCCCACCACAUGAUGAUGCCUGAAGAGCCUUGGUUUUUUG
5. GACCAAUCUGCCCUCAGAGCUCGAGAACAUCUUCGGAUGCAGAGGAGGCAGGCUUCGGUGGCGCGAUAGCGCCAACGUCCUCAACCUCCAAUGCAUACCACCACGUGAUGAUGCCUGAAGAGCCUUGGUUUUUUG
6. GACCAAUCUGCCCUCAGAGCUCGAGAACAUCUUCGGAUGCAGAGGAGGCAGGCUUCGGUUGCGCGAUAGCGCCAACGUCCUCCACCUCCAAUGCAUCCCACCACAUGAUGAUGCCUGAAGAGCCUUGGUUUUUUG

Reply:
1. 0.174
2. -4.78
3. -4.22
4. -0.22
5. -5.98
6. 0.15

Give measured polymerase ribozyme fitness (log ratio) for every item shown.
1. GACCAAUCUGCCCUCAGAGCUCGAGAACAUCUUCGGAUGCAGAGGAGGCAGGCUUCGGUGGCGCGAUAGCGCUAACGUCCUCAACAUCCAAUGCAUCCCACCACAUGAUGAUGCCUGAAGAGCCUUGGUUUUUUG
2. GAACAAUCUGCCCUCAGAGCUCGAGAACAUCUUCGGAUGCAGAGGAGGCAGGCUUCGGUGGCGCGAUAGCGCCAACGUCCUCAACCUCUAAUGCAUCCCACCACAUGAUGAUGCCUGAAGAGCCUUGGUUUUUUG
3. GACCAAUCUGCCCUCAGAGCUCGAGAACAUCUUCGGAUGCAGAGGAGGCAGGCUUCGGUGGCGCGAUAGCGCCAACGUUCUCAACCUCUAAUGCAUCCCACUACAUGAUGAUGCCUGAACAGCCUUGGUUUUUUG
4. GACCAAUCUGCCCUCAGAGCUCGAGAACAUCUUCGGAUGCAGAGGAGGCAGGCUUCGGUGGCGCGAUAGCGCCAACGUCCUCAACCUCCAAUGCAUCCCACCACAUGAUGAUUCCUGAAGAUCCUUGGUUUUUUG

Reply:
1. -0.276
2. -1.82
3. -2.83
4. -2.45

Would you mind giving polymerase ribozyme fitness (log ratio) for every variant in the list below?
1. GACCAAUCUGCCCUCAGAGCUCGAGAACAUCUUCGGAUGCAGAGGAGGCAGGCUUAGGUGGCGCGAUAGCGCCAACGUCCUCAACCUCCAAUGCAUCCCACCACAAGAUGAUGCCUGAAGAGCCUUGGUUUUUUG
2. GACCAAUCUGCCCUCAGAGCUCGAGAACAUCUUCGGAUGCAGAGGAGGCAGGCUUCGGUGGCGCGAUACCGCCAACGUCCUCAACCUCCAAUGCAUCCCACCACAUGAUGAUAACUGAAGAGCCAUGGUUUUAUG
3. GACCAAUCUGCCCUCAGAGCUCGAGAACAUCUUCGGAUGCAGAGGAGGCAGGCCUCGGUGGCGCGAUAGCGCCAACGUCCUCAACCUCCAAUGGAUCCUACCACAUGAUGAUGCCUGAAGAGCCUUGGUUUUUUG
4. GACCAAUCUCCCCGCAGAGCUCGAGAACAUCUUCGGAUGCAGAGGAGGCAGGCUUCGGUGGCGCGAUAGUGCCAACGUCCUCAACCUCCACUGCAUCCCACCACAUGAUGAUGCCUGAAGAGCCUUGGUUUUUUG
5. GACCAAUCUGCCCUCAGAGCUCGAGAACAUCUUUGGAUGCAGAGGAGGCAGGCUUCGGUGGCGCGAUAGCGCCAACGUCCUCAACCUCCAAUGCAUCCCACCACAUGAUGAUGCCUGAAACGCCUUGGUUUUUUG

Reply:
1: -0.695; 2: -4.08; 3: -4.42; 4: -4.25; 5: -4.71

Batch: polymerase ribozyme fitness (log ratio) for all items listed.
1. GAUCAAUCUGCCGUCAGAGCUCGAGAACAUCUUCGGAUGCAGAGGAGUCUGGCUUCGGUGGCGCGAUAGCGCCAACGUCCUCAACCUCCAACGCAUCCCACCACAUGAUGAUGCCUGAAAAGCCUUGGUUAUUUG
2. GACCAAUCUGCGCUCAGAGCUCGAGAACAUUUUCGGAUGCAGAGGAGGCAGGCUUCGGUGACGCGAUAGCGCCAACGUCCUCAACCUCCAAUGCAUCCCACCACAUGAUGAUGCCUGAAGAGCCUUGGUUUUUUG
3. GACCAAUCUGCCCUCAGAGCUCGAGAACAUCUUCGGAUGCAGAGGAGGCAGGCUUCGGUGGCGCGAUACCGCCAACGUCCUCAACCUCCAAUGCAUCCCACCACAUGAUGAUGCCUGAAGAGCCUUGGUUUUUUG
4. GACCAAUCUGCCCUCAGAGCUCGAGAACAUCUUCGGAUGCAGAAGAGGCAGGCUUCGGUCGCGCGAUAGCGCCAACGUCCUCAACCUCCAAUGCAUCCCACCACAUGAUGAUGCCUGAAGAGCCUUGGUUUUUUG
5. GACCAAUCUGCCCUCAGAGCUCGAGAACAUCUUCGGAUGCAGAGGAGGCAGGCUUCGGUGGCGCGAUAGGGCCAACGUCCUCAACCUCCAACGCAUCCCACCACAUGAUGAUGCCUGAAGAGCCUUGGUUUUUUG
6. GACCAAUCUGCCCUCAGAGCUAGAGAACAUCUUCGGAUGCAGAGGAGGCAGGCUGCGGUGGCGCGAUAGCGCCAACGUCCUCAACCUCCAAUGCAUCCCACCACAUGAUGAUGCCUGAAGAGCCUUGGUUUUUUG
7. GACCAAUCUGCCCUCAGAGCUCGAGAACAUCUUCGGAUGCAGAGGUGGUAGGCUUCGGUGGCGCGAUAGCGCCAACGUCCUCAACCUCCAAUGCAUCCCACCACAUGAUGAUGCCUGAAGAGCCUUGGUUUUUUG
8. GACCAAUCUGCCCUCAGAGCUCGAGAACAUCCUCGGAUGCAGAGGAGGCGGGCUUCGGUGGCGCGAUAGCGCCAACGUUCUCAACCUUCAAUGCAUCCCACCACAUGAUGAUGACUGAAGAACCUUGGUUUUUUG

Reply:
[-3.5, -5.13, -1.27, 0.513, -4.9, -4.85, -1.49, -2.69]

Record polymerase ribozyme fitness (log ratio) for all entries; do not skip any.
1. GACCAAUCUGCCCUCAGAGCUCGAGAACAUCCUCGGAUGCAGAGGAGGCAGACUUCGGUGGCGCGAUAGCGCCAACGCCCUCAACCUCCAAUGCAUCCCAACACAUGAUGAUGCCUGAAGAGCCUUGGUUUUUUG
2. GACCAAUCUGCCCUCAGAGCUCGAGAACAUCUUCGGAUGGAGAGGAGGCAGGCUUCGGUGGCGCGAUAGCGCCAACGUCCUCAACCUCCAAUGGAUCCCACCACAUGAUGAUGCCUGAAGUGCCUUGGUUUUUUG
3. GACCAAUCUGCCCUCAGAGCUCGAGAACAUCUUCGGAUGCAGAGGAGGCAGGCUUCGGUGGCGCGAUAGCGCCAACGUCCUCAACCUCCAAUGCAUCCCCCCACAUGAUGAUGCCUGAAGAGACUUGGUUUUUUG
4. GACCAAUCUGCCCUCAGAGCUCGAGAACAUCUUCGGAUGCAGAGGAGGCAGGCUUCGGUGGCGUGAUAGCGCCAACGUCCUCAACCUCUAAUGCAUCCCACCACAUGAUGAUGCCUCAAGAGCCUUGGUUUUUUG
5. GACCAAUCUGCCCUCAGAGCUCGAGAACAUCUUCGGAUGCAGAGUAGGCAGGCUUCGGUGGCGCGAUAGCGCCAACGUCCUCAACCUCCAAUUCAUCCCCCCAAAUGAUGAUGCCUGAAGAGCCUUGGUUUUUUG
6. GACCAAUGUGCCCUCAGAGCUCGAGAACAUCUUCGGAUACAGAGGAGGCAGGCUUCGGUGGCUCGAUAGCGCCAACGUCCUCAUCCUCCAAUGCAUCCCACCACAUGAUGAUGCCUGAAGAGCCUUGGUUUUUUG

Reply:
[-1.13, -0.125, -0.801, -4.79, -6.03, -1.03]

Cited source: the RNAGym collection of RNA variant scans (doi:10.1073/pnas.2313332121)
